Attribution: patent US20260028418A1

The binders listed here are annotated with their absorbance.
- TARGET_DESC: T1, HER2-ECD-Fc (human, UniProt P04626 23-652)
- T1 construct: extracellular domain; Produced in FreeStyle 293F cells; also called HER2-ECD Fc fusion protein
- EXPERIMENT_SUMMARY: ELISA on HER2-ECD-Fc; antibody at 50 µg/mL
Give the figure by itself; no unit, no explanation.

// worked examples, absorbance included
BINDER	absorbance
hz8G11 (antibody, V domains shown, Humanized antibody, detected with anti-human IgG-HRP; also called humanized 8G11 antibody) VH: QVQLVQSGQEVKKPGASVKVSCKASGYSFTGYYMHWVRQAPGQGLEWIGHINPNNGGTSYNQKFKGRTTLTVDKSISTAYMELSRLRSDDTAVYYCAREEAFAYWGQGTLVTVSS VL: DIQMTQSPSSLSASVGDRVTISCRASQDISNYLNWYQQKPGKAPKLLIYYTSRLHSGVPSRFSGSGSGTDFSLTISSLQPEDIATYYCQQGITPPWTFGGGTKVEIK	2.74
1G3 (antibody, V domains shown) VH: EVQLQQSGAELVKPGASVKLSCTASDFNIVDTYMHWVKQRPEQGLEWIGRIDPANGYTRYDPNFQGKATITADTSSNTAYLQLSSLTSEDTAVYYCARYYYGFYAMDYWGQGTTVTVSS VL: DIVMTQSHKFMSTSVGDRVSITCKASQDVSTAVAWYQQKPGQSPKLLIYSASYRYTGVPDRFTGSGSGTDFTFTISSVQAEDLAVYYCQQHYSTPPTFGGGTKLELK	2.76
24D3 (antibody, V domains shown) VH: EVKLVESGGGLVKPGGSLKLSCAASGFTFSSCAMSWVRQTPEKRLEWVATISGGGSYTYYPDSVKGRFTISRDNAKNTLYLQMSSLRSEDTAMYYCARHGGYESWFPYWGQGTLVTVSA VL: DIVMTQSPLSLPVSLGDQASISCRSSQSLVHSNGNTYLHWYLQKPGQSPKLLIYKVSNRFSGVPDRFSGSGSGTDFTLKISRVEAEDLGVYFCSQSTHVPPWTFGGGTKLEIK	2.75
hz2G10 (antibody, V domains shown, Humanized antibody, detected with anti-human IgG-HRP; Only the variable domains are tied to the name; also called humanized 2G10 antibody) VH: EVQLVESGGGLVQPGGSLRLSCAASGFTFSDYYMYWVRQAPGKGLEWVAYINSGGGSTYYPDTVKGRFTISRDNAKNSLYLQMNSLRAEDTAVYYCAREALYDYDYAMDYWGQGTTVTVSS VL: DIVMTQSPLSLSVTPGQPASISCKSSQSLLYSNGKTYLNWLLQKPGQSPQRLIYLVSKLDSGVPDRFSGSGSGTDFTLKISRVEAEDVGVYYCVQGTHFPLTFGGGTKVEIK	2.81

Now take the following binder into account.
Can you look up the measured absorbance of hz39D2 (antibody, V domains shown, Humanized antibody, captured as IgG by anti-human IgG in SPR; also called humanized 39D2 antibody) VH: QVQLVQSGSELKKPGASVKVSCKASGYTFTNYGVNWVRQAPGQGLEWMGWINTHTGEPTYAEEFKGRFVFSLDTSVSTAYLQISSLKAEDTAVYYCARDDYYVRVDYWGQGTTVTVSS VL: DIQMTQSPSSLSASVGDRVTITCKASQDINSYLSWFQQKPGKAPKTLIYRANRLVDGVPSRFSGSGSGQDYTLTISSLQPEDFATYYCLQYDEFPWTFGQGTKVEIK for me?
2.83
